System: UniProt P21453 | Read-out: log10 of IC50 | Origin: multiple publications
QUANTITY_KIND: log10 of IC50 (log10 of the value in µM)

- MOLECULE: "CCCc1ccc(-c2noc3c2CCc2cc(CN4CC(C(=O)O)C4)ccc2-3)cc1"
  log10 of IC50: -1.25
- MOLECULE: "Cc1cc(NC(=O)[C@@](C)(N)CO)ccc1Oc1ccccc1"
  log10 of IC50: -1.82
- MOLECULE: "C[C@](N)(CO)C(=O)Nc1ccc(OCCc2ccc(-c3ccncc3)cc2)cc1"
  log10 of IC50: -2.22
- MOLECULE: "Cc1ccsc1-c1noc(CCC2(c3ccccc3)CCCCC2)n1"
  log10 of IC50: -2.92
- MOLECULE: "COc1ccc(CCCCOc2ccc(NC(=O)[C@@](C)(N)COP(=O)(O)O)cc2)cc1"
  log10 of IC50: -1.64
- MOLECULE: "CCCc1c(-c2nc(-c3ccc(C(O)CN4CCCCC4C(=O)O)cc3)no2)noc1-c1ccccc1 (stereo not drawn)"
  log10 of IC50: -2.66
- MOLECULE: "Fc1ccc(-c2noc(CCC3(c4ccccc4)CCCCC3)n2)c(F)c1"
  log10 of IC50: -1.60

---

pIC50: −log10 of the molar value.
Multi-source literature compilation: pIC50 on S1P1 (Homo sapiens (Human), UniProt P21453).

- COMPOUND: "O=C(O)C1CN(C2Cc3cccc(OCCc4ccccc4)c3C2)C1 (stereo not drawn)"
  pIC50: "< 4.52"
- COMPOUND: "C[C@](N)(COP(=O)(O)O)c1ncc(-c2ccc(Sc3cccc(OCc4ccccc4)c3)cc2Cl)[nH]1"
  pIC50: "7.00 to 12.00"
- COMPOUND: "C[C@](N)(COP(=O)(O)O)C(=O)Nc1ccc(OCCCc2ccc(-c3ccccc3)cc2)cc1"
  pIC50: "7.00 to 12.00"

---

pIC50: −log10 of the molar value.
From various publications: pIC50 for S1P1 (Homo sapiens (Human), UniProt P21453).
QUANTITY_KIND: pIC50

- MOLECULE: "O=C(O)CCCN1CCc2cccc(OCCCCCc3ccccc3)c2CC1"
  QUANTITY_KIND: "pIC50"
  OBSERVED_VALUE: "< 5.00"
- MOLECULE: "C[C@](N)(COP(=O)(O)O)C(=O)Nc1ccc(OCCc2ccc(-c3cccs3)cc2)cc1"
  QUANTITY_KIND: "pIC50"
  OBSERVED_VALUE: "7.00 to 12.00"
- MOLECULE: "C[C@](N)(COP(=O)(O)O)C(=O)Nc1ccc(OCCc2ccc(-c3cccnc3)cc2)cc1"
  QUANTITY_KIND: "pIC50"
  OBSERVED_VALUE: "< 5.00"
- MOLECULE: "C[C@](N)(COP(=O)(O)O)c1nc(-c2ccc(OCc3ccc(-c4ccccc4)cc3)c(C(F)(F)F)c2)c[nH]1"
  QUANTITY_KIND: "pIC50"
  OBSERVED_VALUE: "7.00 to 12.00"
- MOLECULE: "C[C@](N)(COP(=O)(O)O)C(=O)Nc1ccc(OCCc2ccc(-c3ccccc3)cc2)c(Cl)c1"
  QUANTITY_KIND: "pIC50"
  OBSERVED_VALUE: "7.00 to 12.00"
- MOLECULE: "C[C@](N)(COP(=O)(O)O)C(=O)Nc1ccc(OCCc2ccc(-c3ccccc3)cc2)c(C(N)=O)c1"
  QUANTITY_KIND: "pIC50"
  OBSERVED_VALUE: "6.00 to 7.00"
- MOLECULE: "C[C@](N)(COP(=O)(O)O)C(=O)Nc1ccc(-c2csc(-c3ccc(Br)cc3)n2)cc1"
  QUANTITY_KIND: "pIC50"
  OBSERVED_VALUE: "5.00 to 6.00"
- MOLECULE: "O=C(NCCO)C(O)c1ccc(-c2noc(-c3onc(-c4ccccc4)c3C(F)(F)F)n2)cc1 (single isomer, unassigned)"
  QUANTITY_KIND: "pIC50"
  OBSERVED_VALUE: 9.07
- MOLECULE: "Cc1cc(-c2noc(-c3onc(-c4ccccc4)c3C(F)(F)F)n2)ccc1CN1CC(C(=O)O)C1"
  QUANTITY_KIND: "pIC50"
  OBSERVED_VALUE: 9.26
- MOLECULE: "CNC(=O)[C@H](CCc1ccccc1)NC(=O)C(O)c1ccc(-c2noc(-c3onc(-c4ccccc4)c3C(F)(F)F)n2)cc1 (mixture of isomers)"
  QUANTITY_KIND: "pIC50"
  OBSERVED_VALUE: 6.04
- MOLECULE: "CC(C)Oc1cccc(-c2ccc(NC(=O)[C@@](C)(N)CO)cc2)c1"
  QUANTITY_KIND: "pIC50"
  OBSERVED_VALUE: 8.47
- MOLECULE: "CCCc1c(-c2nc(-c3ccc(C(O)CN4CCCC(C(=O)N(CC)CC)C4)cc3)no2)noc1-c1ccccc1 (centres unmarked)"
  QUANTITY_KIND: "pIC50"
  OBSERVED_VALUE: 7.37
- MOLECULE: "O=C(O)C1CC(N2CCc3cccc(OCCc4cccc5ccccc45)c3CC2)C1 (single isomer, unassigned)"
  QUANTITY_KIND: "pIC50"
  OBSERVED_VALUE: "< 5.00"
- MOLECULE: "C[C@](N)(COP(=O)(O)O)C(=O)Nc1ccc(-c2csc(-c3ccc(-c4ccc5c(c4)OCO5)cc3)n2)cc1"
  QUANTITY_KIND: "pIC50"
  OBSERVED_VALUE: "5.00 to 6.00"
- MOLECULE: "O=C(O)C1CN(Cc2ccc(-c3noc(-c4onc(-c5ccccc5)c4C(F)(F)F)n3)c(C(F)(F)F)c2)C1"
  QUANTITY_KIND: "pIC50"
  OBSERVED_VALUE: 8.81
- MOLECULE: "O=C(O)C1CCN(C2CCc3c(cccc3OC/C=C/c3ccc(C(F)(F)F)cc3)C2)C1 (centres unmarked)"
  QUANTITY_KIND: "pIC50"
  OBSERVED_VALUE: "< 4.52"
- MOLECULE: "C[C@](N)(COP(=O)(O)O)C(=O)Nc1ccc(Oc2ccc(-c3ccc4c(c3)OCO4)cc2)cc1"
  QUANTITY_KIND: "pIC50"
  OBSERVED_VALUE: "6.00 to 7.00"
